Answer each item with its documented Bliss excess.
tested on: NCI-H2461 (Mesothelioma); experiment: Bliss excess, mean over the matrix (fraction); higher = more synergy
Hey, just send me the number, nothing else.

Consider C[C@@H]1COCCN1c1cc(C2([S@](C)(=N)=O)CC2)nc(-c2ccnc3[nH]ccc23)n1 [AZD6738] + C1CC(C1)(C(=O)[O-])C(=O)[O-].N.N.[Pt+2] [Carboplatin] (first compound max 10 µM, 7x7, partner max 10 µM) . Its measured Bliss excess is -0.05

Bliss excess in this record for COc1nnc2ccc(N3CCC(c4ccc(OCCN5CCN(C)C(=O)[C@H]5C)cc4)CC3)nn12 [AZD5153] + CCN(CCO)CCCOc1ccc2c(Nc3cc(CC(=O)Nc4cccc(F)c4)[nH]n3)ncnc2c1 [AZD2811] (first compound max 1 µM, 7x7, partner max 1 µM) : -0.0421

Record COc1cccc(OCCCN)c1-c1cc(Nc2cnc(C#N)cn2)n[nH]1 [Prexasertib] + CN(C)CCCOc1ccc(-c2ccc3ncc4c(c3c2)n(C2CCOCC2)c(=O)n4C)cn1 [AZD0156] (first compound max 1 µM, 7x7, partner max 1 µM) , field Bliss excess: -0.0647

The reported value for CN(CCO)CC[C@H](CSc1ccccc1)Nc1ccc(S(=O)(=O)NC(=O)c2ccc(N3CCC([C@@H](O)c4ccccc4-c4ccc(Cl)cc4)CC3)cc2)cc1S(=O)(=O)C(F)(F)F [AZD4320] + Cn1cnc2c(F)c(Nc3ccc(Br)cc3Cl)c(C(=O)NOCCO)cc21 [Selumetinib] (first compound max 1 µM, 7x7, partner max 3 µM) in terms of Bliss excess is 0.0248

----------
system: UMC-11 (Other Solid Carcinomas); test: combination Emax (second highest fraction inhibited in the dose matrix, 72 h); higher = more inhibition; extreme values may be limits of the assay
Observable: combination Emax
Write the number on its own, no unit after it.

Record COc1nnc2ccc(N3CCC(c4ccc(OCCN5CCN(C)C(=O)[C@H]5C)cc4)CC3)nn12 [AZD5153] + CC1(C)CCC(CN2CCN(c3ccc(C(=O)NS(=O)(=O)c4ccc(NCC5CCOCC5)c([N+](=O)[O-])c4)c(Oc4cnc5[nH]ccc5c4)c3)CC2)=C(c2ccc(Cl)cc2)C1 [Venetoclax] (first compound max 1 µM, 7x7, partner max 1 µM) ; system UMC-11 (Other Solid Carcinomas); combination Emax = 0.769

Lab note: molecule CC1(C)CCC(CN2CCN(c3ccc(C(=O)NS(=O)(=O)c4ccc(NCC5CCOCC5)c([N+](=O)[O-])c4)c(Oc4cnc5[nH]ccc5c4)c3)CC2)=C(c2ccc(Cl)cc2)C1 [Venetoclax] + CCN(CCO)CCCOc1ccc2c(Nc3cc(CC(=O)Nc4cccc(F)c4)[nH]n3)ncnc2c1 [AZD2811] (first compound max 1 µM, 7x7, partner max 1 µM) tested on UMC-11 (Other Solid Carcinomas); recorded combination Emax was 0.91

Form field combination Emax for item CN(C)CCCOc1ccc(-c2ccc3ncc4c(c3c2)n(C2CCOCC2)c(=O)n4C)cn1 [AZD0156] + CCN(CCO)CCCOc1ccc2c(Nc3cc(CC(=O)Nc4cccc(F)c4)[nH]n3)ncnc2c1 [AZD2811] (first compound max 1 µM, 7x7, partner max 1 µM) on UMC-11 (Other Solid Carcinomas): 0.758

----------
tested on: 639-V (Bladder Carcinoma); test: Bliss excess, mean over the matrix (fraction); higher = more synergy
Observable: Bliss excess
Just the number, please.

Reading of Bliss excess for CC1(C)CCC(CN2CCN(c3ccc(C(=O)NS(=O)(=O)c4ccc(NCC5CCOCC5)c([N+](=O)[O-])c4)c(Oc4cnc5[nH]ccc5c4)c3)CC2)=C(c2ccc(Cl)cc2)C1 [Venetoclax] + Cc1cc2ncnn2cc1Nc1ncc2c(n1)n(C1CCOCC1)c(=O)n2C [AZD7648] (first compound max 1 µM, 7x7, partner max 10 µM) with 639-V (Bladder Carcinoma): -0.0501

With 639-V (Bladder Carcinoma) as the test system, Cc1cc2ncnn2cc1Nc1ncc2c(n1)n(C1CCOCC1)c(=O)n2C [AZD7648] + CN(C)CCCOc1ccc(-c2ccc3ncc4c(c3c2)n(C2CCOCC2)c(=O)n4C)cn1 [AZD0156] (first compound max 10 µM, 7x7, partner max 1 µM) showed Bliss excess of 0.0192

CN(CCO)CC[C@H](CSc1ccccc1)Nc1ccc(S(=O)(=O)NC(=O)c2ccc(N3CCC([C@@H](O)c4ccccc4-c4ccc(Cl)cc4)CC3)cc2)cc1S(=O)(=O)C(F)(F)F [AZD4320] + CN(C)CCCOc1ccc(-c2ccc3ncc4c(c3c2)n(C2CCOCC2)c(=O)n4C)cn1 [AZD0156] (first compound max 1 µM, 7x7, partner max 1 µM) tested on 639-V (Bladder Carcinoma) gave Bliss excess: -0.0209

Field Bliss excess (system: 639-V (Bladder Carcinoma)) for entry Cc1c2c(nn1C)CSCc1cc(n(C)n1)CSc1cc(c3ccccc3c1)OCCCc1c(C(=O)O)n(C)c3c-2c(Cl)ccc13 [AZD5991] + C[C@@H](Nc1cc(F)cc(F)c1)c1cc(C(=O)N(C)C)cc2c(=O)cc(N3CCOCC3)oc12 [AZD8186] (first compound max 1 µM, 7x7, partner max 3 µM) = 0.0519

Reported 639-V (Bladder Carcinoma) Bliss excess for item COc1cccc(OCCCN)c1-c1cc(Nc2cnc(C#N)cn2)n[nH]1 [Prexasertib] + CCc1c2c(nc3ccc(O)cc13)-c1cc3c(c(=O)n1C2)COC(=O)[C@]3(O)CC [SN-38] (first compound max 1 µM, 7x7, partner max 0.3 µM) was -0.0477

Considering Cc1c2c(nn1C)CSCc1cc(n(C)n1)CSc1cc(c3ccccc3c1)OCCCc1c(C(=O)O)n(C)c3c-2c(Cl)ccc13 [AZD5991] + Cn1cnc2c(F)c(Nc3ccc(Br)cc3Cl)c(C(=O)NOCCO)cc21 [Selumetinib] (first compound max 1 µM, 7x7, partner max 3 µM) , its Bliss excess with 639-V (Bladder Carcinoma) was recorded as 0.0247

Observed Bliss excess, 639-V (Bladder Carcinoma), COc1nnc2ccc(N3CCC(c4ccc(OCCN5CCN(C)C(=O)[C@H]5C)cc4)CC3)nn12 [AZD5153] + CC1(C)CCC(CN2CCN(c3ccc(C(=O)NS(=O)(=O)c4ccc(NCC5CCOCC5)c([N+](=O)[O-])c4)c(Oc4cnc5[nH]ccc5c4)c3)CC2)=C(c2ccc(Cl)cc2)C1 [Venetoclax] (first compound max 1 µM, 7x7, partner max 1 µM) : -0.0962

Measured Bliss excess for this entry CC(=O)c1c(C)c2cnc(Nc3ccc(N4CCNCC4)cn3)nc2n(C2CCCC2)c1=O [Palbociclib] + CN(CC[C@H](CSC1=CC=CC=C1)NC2=C(C=C(C=C2)S(=O)(=O)NC(=O)C3=CC=C(C=C3)N4CCC(CC4)[C@H](C5=CC=CC=C5C6=CC=C(C=C6)Cl)O)S(=O)(=O)C(F)(F)F)CCO [AZD4320] (first compound max 10 µM, 7x7, partner max 1 µM) on 639-V (Bladder Carcinoma): -0.124

----------
test system: OVCAR-8 (Ovarian Carcinoma); test: Bliss excess, mean over the matrix (fraction); higher = more synergy
Could you please report measured Bliss excess for the items listed next?

Form field Bliss excess for item Cc1cc2ncnn2cc1Nc1ncc2c(n1)n(C1CCOCC1)c(=O)n2C [AZD7648] + C=CCn1c(=O)c2cnc(Nc3ccc(N4CCN(C)CC4)cc3)nc2n1-c1cccc(C(C)(C)O)n1 [AZD1775] (first compound max 10 µM, partner max 1 µM) on OVCAR-8 (Ovarian Carcinoma): 0.0102

Readout Bliss excess for CN(CCO)CC[C@H](CSc1ccccc1)Nc1ccc(S(=O)(=O)NC(=O)c2ccc(N3CCC([C@@H](O)c4ccccc4-c4ccc(Cl)cc4)CC3)cc2)cc1S(=O)(=O)C(F)(F)F [AZD4320] + Cc1cc2ncnn2cc1Nc1ncc2c(n1)n(C1CCOCC1)c(=O)n2C [AZD7648] (first compound max 1 µM, 7x7, partner max 10 µM) , test system OVCAR-8 (Ovarian Carcinoma), was -0.049

----------
test system: CAL-51 (Breast Carcinoma); test: combination Emax (second highest fraction inhibited in the dose matrix, 72 h); higher = more inhibition; extreme values may be limits of the assay
Observable: combination Emax
# print the numeric value only

Value of measured combination Emax for the entry Cc1c2c(nn1C)CSCc1cc(n(C)n1)CSc1cc(c3ccccc3c1)OCCCc1c(C(=O)O)n(C)c3c-2c(Cl)ccc13 [AZD5991] + C=CCn1c(=O)c2cnc(Nc3ccc(N4CCN(C)CC4)cc3)nc2n1-c1cccc(C(C)(C)O)n1 [AZD1775] (first compound max 1 µM, partner max 1 µM) : 0.915

combination Emax reading for Cc1c2c(nn1C)CSCc1cc(n(C)n1)CSc1cc(c3ccccc3c1)OCCCc1c(C(=O)O)n(C)c3c-2c(Cl)ccc13 [AZD5991] + C[C@@H](Nc1cc(F)cc(F)c1)c1cc(C(=O)N(C)C)cc2c(=O)cc(N3CCOCC3)oc12 [AZD8186] (first compound max 1 µM, 7x7, partner max 3 µM) : 0.336

// Cc1c2c(nn1C)CSCc1cc(n(C)n1)CSc1cc(c3ccccc3c1)OCCCc1c(C(=O)O)n(C)c3c-2c(Cl)ccc13 [AZD5991] + C[C@@H]1COCCN1C2=NC(=NC(=C2)C3(CC3)[S@](=N)(=O)C)C4=C5C=CNC5=NC=C4 [AZD6738] (first compound max 1 µM, 7x7, partner max 10 µM) : combination Emax value = 0.899

response.value for Cc1c2c(nn1C)CSCc1cc(n(C)n1)CSc1cc(c3ccccc3c1)OCCCc1c(C(=O)O)n(C)c3c-2c(Cl)ccc13 [AZD5991] + CCN(CCO)CCCOc1ccc2c(Nc3cc(CC(=O)Nc4cccc(F)c4)[nH]n3)ncnc2c1 [AZD2811] (first compound max 1 µM, 7x7, partner max 1 µM) (field: combination Emax) = 0.66

Entry C=CCn1c(=O)c2cnc(Nc3ccc(N4CCN(C)CC4)cc3)nc2n1-c1cccc(C(C)(C)O)n1 [AZD1775] + C1CN(CCC1(C(=O)N[C@@H](CCO)C2=CC=C(C=C2)Cl)N)C3=NC=NC4=C3C=CN4 [Capivasertib] (first compound max 3 µM, partner max 3 µM) — recorded combination Emax = 0.941

Entry COc1cccc(OCCCN)c1-c1cc(Nc2cnc(C#N)cn2)n[nH]1 [Prexasertib] + C[C@@H]1COCCN1C2=NC(=NC(=C2)C3(CC3)[S@](=N)(=O)C)C4=C5C=CNC5=NC=C4 [AZD6738] (first compound max 1 µM, 7x7, partner max 10 µM) ; combination Emax = 0.929

The recorded combination Emax for CN(C)CCCOc1ccc(-c2ccc3ncc4c(c3c2)n(C2CCOCC2)c(=O)n4C)cn1 [AZD0156] + O=C(c1cc(Cc2n[nH]c(=O)c3ccccc23)ccc1F)N1CCN(C(=O)C2CC2)CC1 [Olaparib] (first compound max 3 µM, partner max 3 µM) is 0.296

The values you see were collected from the supplement of paper PMC11061612.
